PROTOCOL: Plasma and brain levels of BIA 10‐2474 and PF‐04457845 in mice
Format: in vivo
CONDITION: mouse, plasma, po, 0.3 mg/kg
MEASURED_QUANTITY: Cmax (µg/mL)

INPUT_SMILES	RECORDED_MEASUREMENT
CN(C(=O)n1cnc(-c2ccc[n+]([O-])c2)c1)C1CCCCC1	0.104

###

MEASURED_ON: OCT2 (Homo sapiens)
Sequence (O15244 whole entry): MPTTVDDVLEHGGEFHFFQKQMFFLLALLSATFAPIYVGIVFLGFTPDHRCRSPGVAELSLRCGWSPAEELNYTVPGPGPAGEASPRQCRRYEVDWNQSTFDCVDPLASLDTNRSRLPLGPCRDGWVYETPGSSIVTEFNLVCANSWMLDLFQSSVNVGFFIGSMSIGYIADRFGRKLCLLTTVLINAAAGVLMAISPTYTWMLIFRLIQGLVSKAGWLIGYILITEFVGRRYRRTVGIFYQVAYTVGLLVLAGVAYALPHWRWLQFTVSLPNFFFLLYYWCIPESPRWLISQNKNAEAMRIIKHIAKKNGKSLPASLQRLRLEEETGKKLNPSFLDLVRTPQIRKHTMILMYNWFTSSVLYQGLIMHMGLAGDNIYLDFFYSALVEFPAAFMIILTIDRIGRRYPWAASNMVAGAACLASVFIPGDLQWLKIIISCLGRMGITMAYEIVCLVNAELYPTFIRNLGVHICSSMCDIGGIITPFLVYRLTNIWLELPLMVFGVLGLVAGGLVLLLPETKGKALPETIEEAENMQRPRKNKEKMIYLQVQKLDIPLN
PROTOCOL: Transporter inhibition, probe substrate accumulation
Type: in vitro ADME
CONDITION: MDCKII cells stably transfected with OCT2
MEASURED_QUANTITY: inhibition at 10 μg·ml^−1 (%)

COMPOUND	ENDPOINT_UNIT	RECORDED_MEASUREMENT
CN(C(=O)n1cnc(-c2ccc[n+]([O-])c2)c1)C1CCCCC1 [BIA 10‐2474]	%	25

###

MEASURED_ON: OAT3 (Homo sapiens, UniProt Q8TCC7)
Sequence (Q8TCC7 whole entry): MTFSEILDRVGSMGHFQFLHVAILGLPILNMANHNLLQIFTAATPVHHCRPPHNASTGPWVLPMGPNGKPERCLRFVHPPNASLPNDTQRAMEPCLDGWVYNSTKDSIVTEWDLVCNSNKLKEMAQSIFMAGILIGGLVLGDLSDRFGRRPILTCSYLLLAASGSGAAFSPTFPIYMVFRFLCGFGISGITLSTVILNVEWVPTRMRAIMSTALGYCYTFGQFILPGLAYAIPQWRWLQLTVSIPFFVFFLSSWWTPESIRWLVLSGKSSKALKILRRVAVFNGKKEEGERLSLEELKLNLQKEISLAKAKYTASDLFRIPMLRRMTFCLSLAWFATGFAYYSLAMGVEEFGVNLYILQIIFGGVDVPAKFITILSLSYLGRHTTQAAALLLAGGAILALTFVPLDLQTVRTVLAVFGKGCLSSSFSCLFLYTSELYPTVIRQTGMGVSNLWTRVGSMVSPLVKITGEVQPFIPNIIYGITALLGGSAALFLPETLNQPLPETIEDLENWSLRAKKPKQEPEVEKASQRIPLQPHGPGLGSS
PROTOCOL: Transporter inhibition, probe substrate accumulation
Format: in vitro ADME
CONDITION: HEK293 cells stably transfected with OAT3

MOLECULE	inhibition [%]
CN(C(=O)n1cnc(-c2ccc[n+]([O-])c2)c1)C1CCCCC1 [BIA 10‐2474]	34

###

MEASURED_ON: human recombinant fatty acid amide hydrolase (FAAH) (Homo sapiens, UniProt O00519)
Sequence (O00519 1-579): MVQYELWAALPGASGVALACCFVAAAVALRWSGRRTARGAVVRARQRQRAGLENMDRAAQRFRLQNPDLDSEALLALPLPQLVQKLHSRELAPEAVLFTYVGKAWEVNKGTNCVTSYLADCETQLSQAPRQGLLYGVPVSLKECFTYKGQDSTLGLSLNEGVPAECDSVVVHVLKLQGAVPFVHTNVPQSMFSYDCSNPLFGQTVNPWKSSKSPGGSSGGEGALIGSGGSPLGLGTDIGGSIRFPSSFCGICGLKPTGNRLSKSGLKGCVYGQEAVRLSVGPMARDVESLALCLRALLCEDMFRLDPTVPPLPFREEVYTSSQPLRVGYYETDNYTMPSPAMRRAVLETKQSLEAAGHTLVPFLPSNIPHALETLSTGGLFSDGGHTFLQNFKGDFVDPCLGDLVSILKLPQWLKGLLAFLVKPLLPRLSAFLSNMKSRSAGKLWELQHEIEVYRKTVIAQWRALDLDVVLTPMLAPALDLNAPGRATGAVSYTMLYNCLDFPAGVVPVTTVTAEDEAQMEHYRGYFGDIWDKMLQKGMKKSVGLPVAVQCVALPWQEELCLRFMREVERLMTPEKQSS
PROTOCOL: FAAH activity in intact COS‐hFAAH cells
Assay type: cell-based
CONDITION: IC50 [95% CI], incubation 24 hr
pIC50: −log10 of the molar value.

INPUT_SMILES	MEASURED_ON	pIC50
CN(C(=O)n1cnc(-c2ccc[n+]([O-])c2)c1)C1CCCCC1	human recombinant fatty acid amide hydrolase (FAAH) (Homo sapiens, UniProt O00519)	7.74

###

MEASURED_ON: rat brain fatty acid amide hydrolase (FAAH) (Rattus norvegicus)
Sequence (P97612 1-579): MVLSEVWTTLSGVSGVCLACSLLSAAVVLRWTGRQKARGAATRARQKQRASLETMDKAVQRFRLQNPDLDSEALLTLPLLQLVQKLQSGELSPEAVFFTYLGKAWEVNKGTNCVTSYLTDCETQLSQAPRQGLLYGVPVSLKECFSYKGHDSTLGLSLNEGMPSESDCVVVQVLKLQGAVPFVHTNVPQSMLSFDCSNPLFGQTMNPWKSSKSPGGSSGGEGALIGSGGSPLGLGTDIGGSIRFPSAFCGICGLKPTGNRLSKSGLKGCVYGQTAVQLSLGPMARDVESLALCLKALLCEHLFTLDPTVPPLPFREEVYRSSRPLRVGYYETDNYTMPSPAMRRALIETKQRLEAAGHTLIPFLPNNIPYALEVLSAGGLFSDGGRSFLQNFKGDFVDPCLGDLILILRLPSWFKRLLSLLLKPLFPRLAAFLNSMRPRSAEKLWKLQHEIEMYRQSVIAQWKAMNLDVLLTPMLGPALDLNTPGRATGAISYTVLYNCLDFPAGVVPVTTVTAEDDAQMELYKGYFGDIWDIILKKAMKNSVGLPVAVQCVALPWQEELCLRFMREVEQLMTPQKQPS
Format: biochemical
CONDITION: IC50 [95% CI], pre‐incubation 15 min
MEASURED_QUANTITY: IC50

COMPOUND	RECORDED_MEASUREMENT
CN(C(=O)n1cnc(-c2ccc[n+]([O-])c2)c1)C1CCCCC1 [BIA 10‐2474]	626 nM

###

MEASURED_ON: human recombinant fatty acid amide hydrolase (FAAH) (Homo sapiens)
PROTOCOL: FAAH activity in intact COS‐hFAAH cells
Assay type: cell-based
CONDITION: read-out: IC50 [95% CI]; incubation 3 hr
pIC50: −log10 of the molar value.
Reported values of pIC50 for individual entries

INPUT_SMILES	pIC50
O=C(Nc1cnccc1Cl)N1CCN(Cc2ccc3c(c2)OC(F)(F)O3)CC1	7.60
O=C(Nc1cccnn1)N1CCC(=Cc2cccc(Oc3ccc(C(F)(F)F)cn3)c2)CC1	8.47

###

MEASURED_ON: rat brain fatty acid amide hydrolase (FAAH) (Rattus norvegicus, UniProt P97612)
Assay type: biochemical
CONDITION: read-out: IC50 [95% CI]; pre‐incubation 5 min
pIC50: −log10 of the molar value.
Below, each of the molecules is paired with its reported pIC50 value.
MEASURED_QUANTITY: pIC50

INPUT_SMILES	MEASURED_QUANTITY	RECORDED_MEASUREMENT
O=C(Nc1cnccc1Cl)N1CCN(Cc2ccc3c(c2)OC(F)(F)O3)CC1	pIC50	6.44
O=C(Nc1cccnn1)N1CCC(=Cc2cccc(Oc3ccc(C(F)(F)F)cn3)c2)CC1	pIC50	8.55

###

PROTOCOL: Plasma and brain levels of BIA 10‐2474 and PF‐04457845 in mice
Format: in vivo
CONDITION: mouse, plasma, po, 0.1 mg/kg

COMPOUND	ENDPOINT_UNIT	Tmax
CN(C(=O)n1cnc(-c2ccc[n+]([O-])c2)c1)C1CCCCC1 [BIA 10‐2474]	h	1

###

MEASURED_ON: human recombinant fatty acid amide hydrolase (FAAH) (Homo sapiens)
PROTOCOL: FAAH activity in intact COS‐hFAAH cells
Assay type: cell-based
CONDITION: read-out: IC50 [95% CI]; incubation 24 hr

INPUT_SMILES	ENDPOINT_UNIT	IC50
O=C(Nc1cnccc1Cl)N1CCN(Cc2ccc3c(c2)OC(F)(F)O3)CC1	µM	0.0415

###

MEASURED_ON: rat brain fatty acid amide hydrolase (FAAH) (Rattus norvegicus)
Sequence (P97612 1-579): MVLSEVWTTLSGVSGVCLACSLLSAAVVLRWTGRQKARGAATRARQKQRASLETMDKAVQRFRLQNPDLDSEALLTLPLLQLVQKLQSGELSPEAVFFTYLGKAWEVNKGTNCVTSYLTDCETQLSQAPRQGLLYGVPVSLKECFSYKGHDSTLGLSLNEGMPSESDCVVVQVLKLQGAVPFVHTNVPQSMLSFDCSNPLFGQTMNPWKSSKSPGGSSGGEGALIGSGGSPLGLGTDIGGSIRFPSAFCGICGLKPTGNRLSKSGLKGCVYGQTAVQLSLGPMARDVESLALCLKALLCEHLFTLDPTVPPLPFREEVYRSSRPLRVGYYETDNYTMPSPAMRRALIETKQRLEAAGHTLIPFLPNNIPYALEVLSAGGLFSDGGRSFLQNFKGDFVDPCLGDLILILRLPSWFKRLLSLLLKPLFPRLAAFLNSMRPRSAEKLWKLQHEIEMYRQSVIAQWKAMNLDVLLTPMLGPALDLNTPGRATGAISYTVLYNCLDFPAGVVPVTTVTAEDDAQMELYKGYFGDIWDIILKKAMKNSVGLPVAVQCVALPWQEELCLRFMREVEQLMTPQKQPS
Format: biochemical
CONDITION: read-out: IC50 [95% CI]; pre‐incubation 30 min

INPUT_SMILES	IC50, nM
O=C(Nc1cnccc1Cl)N1CCN(Cc2ccc3c(c2)OC(F)(F)O3)CC1	221
O=C(Nc1cccnn1)N1CCC(=Cc2cccc(Oc3ccc(C(F)(F)F)cn3)c2)CC1	2.7

###

MEASURED_ON: human recombinant fatty acid amide hydrolase (FAAH) (Homo sapiens, UniProt O00519)
PROTOCOL: FAAH activity in intact COS‐hFAAH cells
Assay type: cell-based
CONDITION: IC50 [95% CI], incubation 1 hr
pIC50: −log10 of the molar value.
MEASURED_QUANTITY: pIC50

MOLECULE	RECORDED_MEASUREMENT
CN(C(=O)n1cnc(-c2ccc[n+]([O-])c2)c1)C1CCCCC1 [BIA 10‐2474]	7.13

###

MEASURED_ON: BCRP (Homo sapiens)
Sequence (Q9UNQ0 1-655): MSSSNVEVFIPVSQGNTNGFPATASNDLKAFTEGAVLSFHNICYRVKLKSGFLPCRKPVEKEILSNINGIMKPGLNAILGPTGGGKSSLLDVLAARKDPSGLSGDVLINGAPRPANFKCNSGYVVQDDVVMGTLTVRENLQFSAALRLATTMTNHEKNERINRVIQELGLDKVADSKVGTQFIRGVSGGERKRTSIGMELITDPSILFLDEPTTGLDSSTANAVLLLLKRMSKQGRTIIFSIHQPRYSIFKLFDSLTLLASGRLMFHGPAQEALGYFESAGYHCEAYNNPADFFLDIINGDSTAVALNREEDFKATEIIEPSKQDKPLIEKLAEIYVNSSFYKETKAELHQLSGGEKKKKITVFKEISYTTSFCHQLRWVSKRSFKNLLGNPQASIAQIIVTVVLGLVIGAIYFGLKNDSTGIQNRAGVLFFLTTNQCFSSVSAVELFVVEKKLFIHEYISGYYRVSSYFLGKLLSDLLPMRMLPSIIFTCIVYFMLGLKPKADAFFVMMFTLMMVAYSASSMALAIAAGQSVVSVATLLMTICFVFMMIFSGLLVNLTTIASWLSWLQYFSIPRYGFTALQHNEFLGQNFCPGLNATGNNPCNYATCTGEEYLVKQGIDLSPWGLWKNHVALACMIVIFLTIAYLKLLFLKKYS
PROTOCOL: Bidirectional permeability in MDCKII‐BCRP monolayers
Type: in vitro ADME
CONDITION: with Ko143 1 μM, net ER, MDCKII‐BCRP, with 1 μM of Ko143
MEASURED_QUANTITY: efflux ratio

INPUT_SMILES	RECORDED_MEASUREMENT
CN(C(=O)n1cnc(-c2ccc[n+]([O-])c2)c1)C1CCCCC1	0.03
